Target: D(2) dopamine receptor (Homo sapiens) (UniProt P14416)
Sequence (P14416 whole entry, looked up): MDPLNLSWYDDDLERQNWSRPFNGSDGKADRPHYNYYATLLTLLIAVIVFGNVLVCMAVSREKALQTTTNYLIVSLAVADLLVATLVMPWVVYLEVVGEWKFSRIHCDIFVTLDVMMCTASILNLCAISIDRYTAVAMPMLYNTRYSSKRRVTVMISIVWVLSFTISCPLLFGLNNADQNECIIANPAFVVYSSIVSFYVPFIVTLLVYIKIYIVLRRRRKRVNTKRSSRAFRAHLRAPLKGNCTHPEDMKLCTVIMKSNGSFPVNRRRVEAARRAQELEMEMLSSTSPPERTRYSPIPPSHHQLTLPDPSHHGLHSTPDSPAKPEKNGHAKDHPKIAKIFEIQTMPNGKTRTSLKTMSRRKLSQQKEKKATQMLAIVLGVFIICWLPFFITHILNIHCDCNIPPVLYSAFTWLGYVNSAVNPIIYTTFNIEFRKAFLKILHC
Test: Dopamine D2 receptor (DRD2) small molecule antagonists, cell-based qHTS assay (AID 1963595)
Conditions: HEK293-DRD2 cAMP HTRF antagonist mode; series mostly up to 92.4 µM
Records with an inconclusive call do not appear. Calls of active or inactive are those of the source. Calls follow the shape of the dose curve; as a rule, active = well fitted inhibition curve with a large enough effect in the signal ratio in the repeat runs, with a control signal flat; inconclusive = weak or mixed curves, or effect the other way; inactive = flat fitted curve, though single readings scatter; the % refers to the signal ratio.
Log the outcome using a class from true for active, false for inactive

## Task Dear colleague, could you share the recorded outcome for CC(N=C(NC#N)Nc1ccncc1)C(C)(C)C (stereo not drawn) when you have a moment?
## Result false

## Task Quick one: "COc1cc(N)ccc1C"
## Result false

## Task Okay, and "COCCOc1cc2cc(C(=O)NC3CCN(C(C)C)CC3)n(CC(=O)Nc3ccc(Cl)cn3)c2cn1" ?
## Result false

## Task Subsequent entry: "CN(C)C(=O)C(CCN1CCC(O)(c2ccc(Cl)cc2)CC1)(c1ccccc1)c1ccccc1"
## Result false

## Task What do you have for "CN1CCC(Nc2ncc3ncnc(Nc4ccc(F)c(Cl)c4)c3n2)CC1" ?
## Result false

## Task Try this compound next: "CCN(CC)C(=O)c1cc(S(=O)(=O)Cc2ccccc2)c(N2CCC(c3ccccc3)CC2)cc1N(CC)CCN(C)C"
## Result true

## Task Can you handle "CCN(C)C(=O)Oc1cccc([C@H](C)N(C)C)c1" next?
## Result false

## Task And what about the compound "N[C@@H]1CONC1=O" ?
## Result false

## Task "Cc1cccc(C(=O)O)c1O" ?
## Result false

## Task Follow-up entry: Cc1cccc(OCC(O)CNC(C)(C)C)c1C (stereo not drawn)
## Result false

## Task And then "CC(C)CCCCCCN" , what is it?
## Result false

## Task Another: "CC(C)COC(=O)/C=C/c1ccccc1"
## Result false

## Task What would you report for "C=C1CC[C@H]2C[C@@H]1C2(C)C" ?
## Result false

## Task Then this compound: "CC1(C)O[C@@H]2C[C@H]3[C@@H]4C[C@H](F)C5=CC(=O)C=C[C@]5(C)[C@H]4[C@@H](O)C[C@]3(C)[C@]2(C(=O)CO)O1"
## Result false

## Task Same question, "COC(=O)CC(C)=O" this time
## Result false

## Task Repeat with Nc1ccn([C@@H]2O[C@H](CO)[C@@H](O)C2O)c(=O)n1 (stereo partly drawn)
## Result false

## Task What do you get for "NCCN1CCOCC1" ?
## Result false

## Task Now this one: "CCC/C=C(\C=O)CC"
## Result false

## Task // query: CCCCCC(CO)CCC (stereo not drawn)
## Result false

## Task Query "CCOCCn1c(N2CCCN(C)CC2)nc2ccccc21" next
## Result false

## Task "O=[N+]([O-])c1ccc(O)c2ncccc12" , same question.
## Result false

## Task Now this one: "O=C(O)C1(C(=O)Nc2ccc(Cl)cc2Cl)CC1"
## Result false

## Task Cool, now "NC(=O)c1cc[n+](CC2=C(C(=O)[O-])N3C(=O)[C@@H](NC(=O)Cc4cccs4)[C@H]3SC2)cc1"
## Result false

Source listed as PubChem BioAssay (Tox21).
